// provenance: patent US20260216207A1

target: PAK4 (Homo sapiens, UniProt O96013)
Sequence (O96013 whole entry, species assumed): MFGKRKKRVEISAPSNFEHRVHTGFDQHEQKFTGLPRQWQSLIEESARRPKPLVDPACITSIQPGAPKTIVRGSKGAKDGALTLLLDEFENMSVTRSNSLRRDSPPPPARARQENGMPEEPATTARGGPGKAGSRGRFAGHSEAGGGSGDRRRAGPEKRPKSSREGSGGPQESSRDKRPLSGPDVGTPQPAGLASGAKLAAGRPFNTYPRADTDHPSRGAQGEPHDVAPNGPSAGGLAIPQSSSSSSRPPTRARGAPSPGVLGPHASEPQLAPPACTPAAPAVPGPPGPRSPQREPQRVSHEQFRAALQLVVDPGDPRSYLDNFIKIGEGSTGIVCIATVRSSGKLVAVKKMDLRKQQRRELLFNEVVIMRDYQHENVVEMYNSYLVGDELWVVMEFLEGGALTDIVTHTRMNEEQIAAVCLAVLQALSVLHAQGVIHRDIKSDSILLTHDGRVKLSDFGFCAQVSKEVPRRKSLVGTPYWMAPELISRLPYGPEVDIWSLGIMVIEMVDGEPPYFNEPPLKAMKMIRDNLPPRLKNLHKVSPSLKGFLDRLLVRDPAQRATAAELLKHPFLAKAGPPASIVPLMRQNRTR
procedure_text: HTRF KinEASE kinase assay, PAK4 (kinase selectivity)
Type: biochemical
condition_details: HTRF KinEASE kit, 3 duplicate wells; read-out: PAK4 IC50
experimental_endpoint: IC50
Phrase the answer as number then unit, nothing more needed.

Inquiry: Reported IC50 for PAK4 (Homo sapiens, UniProt O96013), given CO[C@@H]1[C@H](N(C)C(=O)CCC(=O)NO)C[C@H]2O[C@]1(C)n1c3ccccc3c3c4c(c5c6ccccc6n2c5c31)C(=O)NC4=O ?
Reply text: 240 nM

###

target: TRKA (Homo sapiens, UniProt P04629)
Sequence (P04629 33-796, species assumed): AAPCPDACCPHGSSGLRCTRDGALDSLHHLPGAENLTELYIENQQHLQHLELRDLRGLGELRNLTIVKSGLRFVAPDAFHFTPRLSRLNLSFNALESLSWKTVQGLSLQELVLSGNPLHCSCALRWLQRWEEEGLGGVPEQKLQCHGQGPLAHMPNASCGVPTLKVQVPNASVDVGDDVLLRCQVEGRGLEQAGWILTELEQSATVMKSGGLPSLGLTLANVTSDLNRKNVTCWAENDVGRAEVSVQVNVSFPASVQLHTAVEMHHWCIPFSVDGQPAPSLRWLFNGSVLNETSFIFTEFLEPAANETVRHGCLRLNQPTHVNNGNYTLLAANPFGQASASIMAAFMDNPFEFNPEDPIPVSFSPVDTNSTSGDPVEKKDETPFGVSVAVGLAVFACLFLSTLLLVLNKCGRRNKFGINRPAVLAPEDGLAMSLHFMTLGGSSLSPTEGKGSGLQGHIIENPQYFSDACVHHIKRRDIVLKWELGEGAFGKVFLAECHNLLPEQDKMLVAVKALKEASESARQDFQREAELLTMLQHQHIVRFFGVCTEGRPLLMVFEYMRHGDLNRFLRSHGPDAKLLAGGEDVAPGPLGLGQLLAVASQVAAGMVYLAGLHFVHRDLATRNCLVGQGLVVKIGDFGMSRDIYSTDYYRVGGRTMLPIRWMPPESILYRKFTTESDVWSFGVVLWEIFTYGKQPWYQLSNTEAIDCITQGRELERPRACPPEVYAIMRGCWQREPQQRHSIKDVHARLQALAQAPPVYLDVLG
procedure_text: HTRF KinEASE kinase assay, TRKA (kinase selectivity)
Format: biochemical
condition_details: HTRF KinEASE kit, 3 duplicate wells; read-out: TRKA IC50
experimental_endpoint: IC50 (nM)
Answers are plain numbers, in nM.

Inquiry: Dear colleague, I am looking for the recorded IC50 of the following compound: CO[C@@H]1[C@H](N(C)C(=O)CCC(=O)NO)C[C@H]2O[C@]1(C)n1c3ccccc3c3c4c(c5c6ccccc6n2c5c31)C(=O)NC4=O
Reply text: 4

###

I'd be grateful if you could share measured IC50 for these entries.
target: PIM-1 kinase (Homo sapiens, UniProt P11309)
Sequence (P11309 whole entry): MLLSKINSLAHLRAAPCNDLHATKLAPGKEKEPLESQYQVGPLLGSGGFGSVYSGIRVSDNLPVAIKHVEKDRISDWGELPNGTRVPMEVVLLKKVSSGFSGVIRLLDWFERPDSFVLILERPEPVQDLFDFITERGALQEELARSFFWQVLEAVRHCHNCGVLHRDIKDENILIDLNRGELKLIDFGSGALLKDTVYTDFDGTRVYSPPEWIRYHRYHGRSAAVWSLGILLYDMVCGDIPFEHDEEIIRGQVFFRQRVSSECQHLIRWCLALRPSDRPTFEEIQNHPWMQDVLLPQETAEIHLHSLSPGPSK
procedure_text: HTRF KinEASE kinase assay, PIM-1 inhibitory activity
Type: biochemical
condition_details: HTRF KinEASE kit, 3 duplicate wells; read-out: PIM-1 kinase inhibitory activity (IC50)
Give bare numbers, in µM.

Consider the following illustrative entries.
* CO[C@@H]1[C@H](N(C)C(=O)CCCCCCC(=O)O)C[C@H]2O[C@]1(C)n1c3ccccc3c3c4c(c5c6ccccc6n2c5c31)C(=O)NC4=O [Compound 16] | 0.0659
* CO[C@@H]1[C@H](N(C)C(=O)CCC(=O)Nc2cc[nH]n2)C[C@H]2O[C@]1(C)n1c3ccccc3c3c4c(c5c6ccccc6n2c5c31)C(=O)NC4=O [Compound 18] | 0.0324

Read the next record carefully.
Inquiry: Item under review: CO[C@@H]1[C@H](N(C)C(=O)C=C(C)C)C[C@H]2O[C@]1(C)n1c3ccccc3c3c4c(c5c6ccccc6n2c5c31)C(=O)NC4=O [Compound 10] . Reported IC50?
Reply text: 0.0814

###

target: PKCη (Homo sapiens)
Sequence (P24723 whole entry): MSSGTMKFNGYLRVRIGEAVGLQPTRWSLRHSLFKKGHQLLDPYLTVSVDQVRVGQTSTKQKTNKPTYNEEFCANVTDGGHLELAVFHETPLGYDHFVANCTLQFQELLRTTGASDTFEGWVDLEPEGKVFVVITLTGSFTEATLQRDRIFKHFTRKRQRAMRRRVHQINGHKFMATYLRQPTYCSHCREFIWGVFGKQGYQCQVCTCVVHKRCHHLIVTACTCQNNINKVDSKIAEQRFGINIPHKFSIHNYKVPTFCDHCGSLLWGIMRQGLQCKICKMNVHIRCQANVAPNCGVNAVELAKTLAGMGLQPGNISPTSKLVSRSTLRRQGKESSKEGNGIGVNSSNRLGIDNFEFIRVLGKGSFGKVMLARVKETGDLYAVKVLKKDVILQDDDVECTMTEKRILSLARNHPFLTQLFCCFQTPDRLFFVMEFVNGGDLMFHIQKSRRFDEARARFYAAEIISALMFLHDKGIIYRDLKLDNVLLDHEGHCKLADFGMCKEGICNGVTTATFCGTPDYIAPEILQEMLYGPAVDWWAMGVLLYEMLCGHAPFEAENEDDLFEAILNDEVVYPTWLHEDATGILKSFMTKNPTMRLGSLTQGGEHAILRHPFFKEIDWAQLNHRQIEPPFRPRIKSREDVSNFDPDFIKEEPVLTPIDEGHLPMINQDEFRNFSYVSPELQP
procedure_text: HTRF KinEASE kinase assay, PKCη (kinase selectivity)
Format: biochemical
experimental_endpoint: IC50 (nM)
Give bare numbers, in nM.

Inquiry: Any idea what its IC50 is? The compound is CN[C@@H]1C[C@H]2O[C@@](C)([C@@H]1OC)n1c3ccccc3c3c4c(c5c6ccccc6n2c5c31)C(=O)NC4=O [Compound 7OSTA, 7-carbonylstaurosporine]
Reply text: 2.1

###

target: PLK1 (Homo sapiens, UniProt P53350)
Sequence (P53350 whole entry, species assumed): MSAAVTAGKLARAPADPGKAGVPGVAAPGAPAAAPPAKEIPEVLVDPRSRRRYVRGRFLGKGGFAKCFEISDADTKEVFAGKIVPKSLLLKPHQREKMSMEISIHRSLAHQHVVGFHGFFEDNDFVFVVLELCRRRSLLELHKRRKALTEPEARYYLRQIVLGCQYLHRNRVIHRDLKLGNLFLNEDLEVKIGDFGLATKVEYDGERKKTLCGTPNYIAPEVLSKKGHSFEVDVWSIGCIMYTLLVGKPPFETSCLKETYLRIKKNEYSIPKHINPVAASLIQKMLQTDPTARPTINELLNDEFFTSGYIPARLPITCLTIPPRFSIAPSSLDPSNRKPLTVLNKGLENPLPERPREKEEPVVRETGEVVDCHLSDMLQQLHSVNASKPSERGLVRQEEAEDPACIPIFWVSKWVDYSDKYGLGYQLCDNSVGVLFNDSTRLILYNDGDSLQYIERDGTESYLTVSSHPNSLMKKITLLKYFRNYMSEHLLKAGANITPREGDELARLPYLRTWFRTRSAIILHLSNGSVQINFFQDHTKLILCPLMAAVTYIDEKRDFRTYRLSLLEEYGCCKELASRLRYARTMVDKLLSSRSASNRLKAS
procedure_text: HTRF KinEASE kinase assay, PLK1 (kinase selectivity)
Type: biochemical
condition_details: HTRF KinEASE kit, 3 duplicate wells; read-out: PLK1 IC50
experimental_endpoint: IC50 (nM)
One number for each entry, in nM.

Inquiry: Need IC50, item CO[C@@H]1[C@H](N(C)C(=O)CCC(=O)NO)C[C@H]2O[C@]1(C)n1c3ccccc3c3c4c(c5c6ccccc6n2c5c31)C(=O)NC4=O
Reply text: 421

###

target: IKKβ (Homo sapiens)
Sequence (O14920 whole entry, species assumed): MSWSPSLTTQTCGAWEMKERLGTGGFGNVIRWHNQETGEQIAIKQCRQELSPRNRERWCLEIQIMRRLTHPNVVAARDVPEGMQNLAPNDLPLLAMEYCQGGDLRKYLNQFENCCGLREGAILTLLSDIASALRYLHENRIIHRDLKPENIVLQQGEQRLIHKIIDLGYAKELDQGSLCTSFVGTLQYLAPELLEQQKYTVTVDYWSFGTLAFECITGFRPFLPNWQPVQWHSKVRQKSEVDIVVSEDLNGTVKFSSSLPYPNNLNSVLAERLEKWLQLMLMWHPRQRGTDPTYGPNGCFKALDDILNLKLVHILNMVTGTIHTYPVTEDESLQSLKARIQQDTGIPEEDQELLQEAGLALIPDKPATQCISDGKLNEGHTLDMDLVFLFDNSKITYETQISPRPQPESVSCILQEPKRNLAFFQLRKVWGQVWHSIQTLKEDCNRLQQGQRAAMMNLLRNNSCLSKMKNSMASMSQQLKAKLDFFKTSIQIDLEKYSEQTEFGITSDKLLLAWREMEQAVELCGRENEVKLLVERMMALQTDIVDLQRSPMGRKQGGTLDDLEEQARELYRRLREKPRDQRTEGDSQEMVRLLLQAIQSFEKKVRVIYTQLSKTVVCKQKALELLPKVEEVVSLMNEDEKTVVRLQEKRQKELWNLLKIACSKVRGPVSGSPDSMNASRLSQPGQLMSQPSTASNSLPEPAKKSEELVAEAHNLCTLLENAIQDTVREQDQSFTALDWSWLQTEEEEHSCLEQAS
procedure_text: HTRF KinEASE kinase assay, IKKβ (kinase selectivity)
Assay type: biochemical
condition_details: HTRF KinEASE kit, 3 duplicate wells; read-out: IKKβ IC50
experimental_endpoint: IC50

Inquiry: # lookup: IC50 of CO[C@@H]1[C@H](N(C)C(=O)CCC(=O)NO)C[C@H]2O[C@]1(C)n1c3ccccc3c3c4c(c5c6ccccc6n2c5c31)C(=O)NC4=O
Reply text: > 1000 nM
